assay method text: chemical genetic growth profiling, strain panel (AID 1159580);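 further: tested at 20 µM; growth read once vehicle control cultures reached saturation at 30 °C; 1 = growth at the plate median or of vehicle wells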
measurement context: S. cerevisiae deletion strains, growth OD, locus YKL048C, strain ELM1, stronger effect = lower value
Screen size: about 5,500 compounds; about 2,000 (36%) were called active. Inconclusive results (about 18%) are left out. Some of the results follow.
endpoint: normalized growth
No unit in the answer, please; the number alone is enough.

Recorded results for 3 molecules are shown here.
{"molecule": "Cc1cc(Oc2ccc(C(F)(F)F)cc2NS(C)(=O)=O)cc(C)c1Cl", "normalized growth": 0.985}
{"molecule": "O=C1Nc2ccccc2/C1=C\\c1c(Cl)cccc1Cl", "normalized growth": 0.944}
{"molecule": "COc1ccccc1NC(=S)N/N=C\\c1ccccc1O", "normalized growth": 0.962}

Data request: Given CC(C)(C)NC(=S)N/N=C\c1ccccc1O , state its recorded normalized growth.
Data returned: 0.947

Data request: Again, but for CC(NC(=S)N/N=C\c1ccccc1O)c1ccccc1 (centres undefined)
Data returned: 0.972

Data request: Again, but for c1ccc(-c2nnc(-c3ccccn3)nc2-c2ccccc2)cc1
Data returned: 0.683

Data request: Again, but for Cc1nnc2n1N=C(c1ccc(CC(C)C)cc1)C(C)S2 (centres undefined)
Data returned: 0.979

Data request: Again, but for O/N=C(/c1ccc(Cl)cc1)c1cc2ccccc2o1
Data returned: 0.923

Data request: Again, but for COc1cc(Br)cc(C=Nc2ccc(Sc3ccccc3)nc2Sc2ccccc2)c1O
Data returned: 0.935

* * *

assay method text: chemical genetic growth profiling, strain panel (AID 1159580)
measurement context: S. cerevisiae deletion strains, growth OD, locus YNL207W, strain RIO2
Among all 5,500 compounds or so, about 2,000 (36%) were called active. Another 18% or so got no clear call; they are omitted. No stated cut-off is given here; in the data, active means normalized growth mostly below about 0.91 (no sharp cut-off); inconclusive means no clear call, values can overlap the other calls; inactive means mostly above about 0.92. Some of the results follow.
Write down one outcome, taken from active, inactive

{"compound": "O=C1Nc2ccccc2/C1=C\\c1ccc(Cl)cc1", "group label": "inactive"}
{"compound": "O=C1Nc2ccccc2/C1=C\\c1cccc([N+](=O)[O-])c1", "group label": "inactive"}
{"compound": "CCNC(=S)N/N=C\\c1cc(Cl)cc(Cl)c1O", "group label": "inactive"}
{"compound": "O=C1/C(=C/c2ccccn2)CCc2ccccc21", "group label": "inactive"}
{"compound": "Oc1c(Br)cc(Br)cc1C=Nc1ccccn1", "group label": "inactive"}

In the following, a different compound is considered.
Data request: Lab log entry: Oc1c(Br)cc(Br)cc1C=Nc1ccc(Sc2ccccc2)nc1Sc1ccccc1 — outcome as called in the assay?
Data returned: inactive

* * *

List of normalized growth values.
assay method text: chemical genetic growth profiling, strain panel (AID 1159580);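 further: tested at 20 µM; growth read once vehicle control cultures reached saturation at 30 °C; 1 = growth at the plate median or of vehicle wells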
measurement context: S. cerevisiae deletion strains, growth OD, locus YIR030C, strain dcg1, stronger effect = lower value
Screen size: about 5,500 compounds; about 2,000 (36%) were called active. Another 18% or so got no clear call; they are omitted. This is one part of the list.
No unit in the answer, please; the number alone is enough.

Recorded results for 4 compounds are shown here.
{"compound": "COc1ccc2c(c1C(C)C)CCC1C(C)(C)C(=O)CCC21C (stereo not drawn)", "normalized growth": 0.97}
{"compound": "CC(CC(O)C1OC1(C)C)[C@@H]1CCC2(C)C3=CCC4C(C)(C)C(=O)CCC4(C)C3CC[C@@]12C (stereo partly drawn)", "normalized growth": 1.03}
{"compound": "COC(=O)C[C@H]1C(C)(C)C2(Cl)O[C@@]34CC2C(=O)[C@]1(C)C3CC[C@]1(C)C4=CC(=O)O[C@H]1c1ccoc1 (stereo partly drawn)", "normalized growth": 0.986}
{"compound": "CCCC(C)(COC(N)=O)COC(=O)NC(C)C (stereo not drawn)", "normalized growth": 0.978}

Data request: Given Cc1[nH]ccc2c1[nH]c1cc(=O)ccc12 , state its recorded normalized growth.
Data returned: 0.991

Data request: Again, but for O=c1c(O)c(-c2ccc(O)cc2O)oc2cc(O)cc(O)c12
Data returned: 1.02

Data request: Again, but for COc1ccc(-c2cc(=O)c3c(O)cc(O[C@@H]4O[C@H](CO[C@H]5O[C@H](C)[C@@H](O)[C@H](O)[C@@H]5O)[C@@H](O)[C@H](O)[C@H]4O)cc3o2)cc1O
Data returned: 0.985

Data request: Again, but for CC1(C)O[C@H]2CC(=O)OC[C@]23[C@H]2CC[C@@]4(C)[C@H](c5ccoc5)OC(=O)[C@H]5O[C@]54[C@]2(C)C(=O)C[C@@H]13
Data returned: 0.984

Data request: Again, but for O=c1cc(-c2ccc(O)cc2)oc2cc(O[C@@H]3O[C@H](CO)[C@@H](O)[C@H](O)[C@H]3O)cc(O)c12
Data returned: 0.987

Data request: Again, but for CC(=O)Oc1ccc2c(c1OC(C)=O)OCC1(O)Cc3c(cc(OC(C)=O)c(OC(C)=O)c3OC(C)=O)C21 (stereo not drawn)
Data returned: 0.986

Data request: Again, but for CC1(C)C=CC(=O)[C@@]2(C)C1CC(=O)[C@]1(C)C2CC[C@@]2(C)[C@H](c3ccoc3)OC(=O)C3OC321 (stereo partly drawn)
Data returned: 0.969

Data request: Again, but for CC(C)c1c(O)ccc2c1CCC1[C@@](C)(C=O)CCC[C@]21C (stereo partly drawn)
Data returned: 0.607

Data request: Again, but for NC(=O)NCCCC(N)C(=O)O (stereo not drawn)
Data returned: 0.993

Data request: Again, but for CC(C)[N+](C)(CCC(C(N)=O)(c1ccccc1)c1ccccc1)C(C)C
Data returned: 1.02

Data request: Again, but for CC(=O)[C@@]1(O)CCC2C3C[C@H](C)C4=CC(=O)C=CC4(C)[C@@]3(F)[C@@H](O)C[C@@]21C (stereo partly drawn)
Data returned: 1

Data request: Again, but for CC(C)c1c(O)ccc2c1CCC1[C@@](C)(CO)CCC[C@]21C (stereo partly drawn)
Data returned: 0.954

Data request: Again, but for CC/C(=C(/CC)c1ccc(O)cc1)c1ccc(O)cc1
Data returned: 0.998

Data request: Again, but for CCC1OC(=O)[C@H](C)C(=O)[C@H](C)[C@@H](OC2O[C@H](C)C[C@H](N(C)C)[C@H]2O)[C@](C)(OC)C2(CCCn3cnc(-c4cccnc4)c3)C[C@@H](C)C(=O)[C@H](C)[C@H]3N(C2)C(=O)O[C@]13C (stereo partly drawn)
Data returned: 0.999

Data request: Again, but for CC(C)c1c(O)ccc2c1CCC1C(C)(C)CCC[C@]21C (stereo partly drawn)
Data returned: 0.292

Data request: Again, but for COc1cccc2c(C)cc(=O)[nH]c12
Data returned: 0.954

Data request: Again, but for CC(=O)O[C@@H]1CC2C(C)(C)C(=O)C=C[C@]2(C)C2CC[C@@]3(C)[C@H](c4ccoc4)OC(=O)[C@H]4O[C@]43[C@@]21C (stereo partly drawn)
Data returned: 0.989

Data request: Again, but for CC(=O)OC1CN2CCC1CC2 (stereo not drawn)
Data returned: 0.971

Data request: Again, but for CC(C)C1COc2cc3oc(=O)ccc3cc2O1 (stereo not drawn)
Data returned: 0.701

Data request: Again, but for CNC(C)C(O)c1ccccc1 (stereo not drawn)
Data returned: 1.02

* * *

assay method text: chemical genetic growth profiling, strain panel (AID 1159580);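 further: tested at 20 µM; growth read once vehicle control cultures reached saturation at 30 °C; 1 = growth at the plate median or of vehicle wells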
measurement context: S. cerevisiae deletion strains, growth OD, locus YGL086W, strain mad1
Screen size: about 5,500 compounds; about 2,000 (36%) were called active. Inconclusive results (about 18%) are left out. No stated cut-off is given here; in the data, active means normalized growth mostly below about 0.91 (no sharp cut-off); inconclusive means no clear call, values can overlap the other calls; inactive means mostly above about 0.92. This is one part of the list.
Write down one outcome, taken from active, inactive

{"molecule": "C[C@@H]1CC[C@@]2(NC1)O[C@H]1C[C@H]3C4CC=C5C[C@@H](O)CC[C@]5(C)C4CC[C@]3(C)C1[C@@H]2C (some centres undefined)", "group label": "active"}
{"molecule": "CC1CC[C@]2(NC1)O[C@H]1CC3C4CC[C@H]5C[C@@H](O)CC[C@]5(C)C4CC[C@]3(C)[C@H]1[C@@H]2C (some centres undefined)", "group label": "active"}

Data request: Lab log entry: CCC/C=C1\OC(=O)C2=C1CCC=C2 — outcome as called in the assay?
Data returned: active

Data request: Again, but for O=c1c(O)c(-c2ccc(O)cc2O)oc2cc(O)cc(O)c12
Data returned: inactive

Data request: Again, but for O=C(OC1Cc2c(O)cc(O)cc2OC1c1cc(=O)c(O)c2c(O)c(O)cc(C3Oc4cc(O)cc(O)c4CC3O)c2c1)c1cc(O)c(O)c(O)c1 (centres undefined)
Data returned: active

* * *

assay method text: chemical genetic growth profiling, strain panel (AID 1159580);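 further: tested at 20 µM; growth read once vehicle control cultures reached saturation at 30 °C; 1 = growth at the plate median or of vehicle wells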
measurement context: S. cerevisiae deletion strains, growth OD, locus YJL187C, strain SWE1, stronger effect = lower value
About 2,000 (36%) of roughly 5,500 compounds were called active. About 18% were inconclusive and are not listed. The list shows a part of the results.
endpoint: normalized growth

Recorded results for 8 compounds are shown here.
{"compound": "CCCCCC(=O)Cc1cc(O)cc(O)c1C(=O)Oc1cc(CC(=O)CCCCC)c(C(=O)O)c(OC)c1", "normalized growth": "0.909 (active)"}
{"compound": "C=CC1C2=CCOC(=O)C2=COC1OC1OC(CO)C(O)C(O)C1O (centres undefined)", "normalized growth": "1.02 (inactive)"}
{"compound": "CCOC(=O)/C(C#N)=C/c1ccc(Br)cc1", "normalized growth": "0.846 (active)"}
{"compound": "CC1(C)C(=O)C=C[C@@]2(C)C1C=C[C@]1(C)C2CC[C@@]2(C)[C@H](c3ccoc3)OC(=O)C3OC321 (some centres undefined)", "normalized growth": "0.987 (inactive)"}
{"compound": "CC(CC(O)C1OC1(C)C)[C@@H]1CCC2(C)C3=CCC4C(C)(C)C(=O)CCC4(C)C3CC[C@@]12C (some centres undefined)", "normalized growth": "0.995 (inactive)"}
{"compound": "CN[C@@H]1[C@@H](O)C(OC2[C@@H](N)C[C@@H](N)[C@H](O[C@H]3O[C@H](C(C)O)[C@@H](O)[C@H](O)[C@H]3N)[C@H]2O)OC[C@]1(C)O (some centres undefined)", "normalized growth": "0.988 (inactive)"}
{"compound": "CCCCCc1c2c(cc(O)c1C(=O)O)OC(=O)c1c(cc(OC)cc1C(=O)CCCC)O2", "normalized growth": "1 (inactive)"}
{"compound": "CCCCCCC(C)OC(=O)COc1ccc(Cl)cc1Cl (centres undefined)", "normalized growth": "0.992 (inactive)"}

Please examine the following record next.
Data request: Given CC(C1OC(C)(C)C(O)C1O)[C@@H]1CC[C@]2(C)C3=CCC4C(C)(C)C(=O)CC[C@]4(C)C3CC[C@@]12C (some centres undefined) , state its recorded normalized growth.
Data returned: 0.999 (inactive)
